TESTED TARGET: β2 -adrenergic receptors (Rattus norvegicus, UniProt P10608)
Construct: cerebellums of male rats weighing an average of 150 g; from tissue; host or cells: cerebellum of male rats (membranes)
Sequence (P10608 whole entry): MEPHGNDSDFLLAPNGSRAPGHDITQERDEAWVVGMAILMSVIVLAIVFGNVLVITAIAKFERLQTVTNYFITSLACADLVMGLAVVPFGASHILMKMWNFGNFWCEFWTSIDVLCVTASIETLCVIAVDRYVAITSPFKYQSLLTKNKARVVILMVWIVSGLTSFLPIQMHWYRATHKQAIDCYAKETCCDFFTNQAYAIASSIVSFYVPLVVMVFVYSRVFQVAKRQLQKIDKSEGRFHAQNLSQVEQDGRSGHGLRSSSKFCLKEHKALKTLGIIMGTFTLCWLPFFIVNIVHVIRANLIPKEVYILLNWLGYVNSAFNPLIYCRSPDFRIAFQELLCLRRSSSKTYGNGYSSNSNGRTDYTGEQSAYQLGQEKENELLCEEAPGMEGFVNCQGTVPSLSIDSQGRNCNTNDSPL
PROTOCOL TEXT: Affinity for β2 adrenergic receptors (3H dihydroalprenolol displacement, rat cerebellum)
Type: binding
SETUP CONDITIONS: relative to propranolol, 37° C., pH 7.7
Counter-ions that a name gives are not always drawn.
RECORDED ENDPOINT: ARL in % (relative affinity for β2 adrenergic receptors) (%)
Report only the number, with the unit % understood.

// worked examples, ARL in % (relative affinity for β2 adrenergic receptors) included
C=CCOc1ccccc1OCC(O)CN1CCC(c2c[nH]c3ccccc23)CC1 (stereo not shown) [Example 1, hydrochloride] :: 10.5
OC(COc1ccccc1C1CCCCC1)CN1CCC(c2c[nH]c3ccccc23)CC1 (stereo not shown) [Example 15, hydrochloride] :: 5.4
N#Cc1ccccc1OCC(O)CN1CCC(c2c[nH]c3ccccc23)CC1 (stereo not shown) [Example 4, hydrochloride] :: 1.1
C=CCc1ccccc1OCC(O)CN1CCC(c2c[nH]c3ccccc23)CC1 (stereo not shown) [Example 7, hydrochloride] :: 10
CC(=O)c1ccccc1OCC(O)CN1CCC(c2c[nH]c3ccccc23)CC1 (stereo not shown) [Example 17, hydrochloride] :: 3.3

[in] Determine from records and report ARL in % (relative affinity for β2 adrenergic receptors) for COC(=O)c1ccccc1OCC(O)CN1CCC(c2c[nH]c3ccccc23)CC1 (stereo not shown) [Example 6, hydrochloride]
[out] 3.5

[in] Determine from records and report ARL in % (relative affinity for β2 adrenergic receptors) for C#CCc1ccccc1OCC(O)CN1CCC(c2c[nH]c3ccccc23)CC1 (stereo not shown) [Example 16, hydrochloride]
[out] 11

Data origin: patent US4530932A
